Entries and their abundance fitness
B1: Tyrosine-protein kinase Lck, residues 63 to 120; numbered along this chain, P06239 (parent)
chain: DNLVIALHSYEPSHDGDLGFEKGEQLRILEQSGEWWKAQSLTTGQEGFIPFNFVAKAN

Variants of: B1
PROTOCOL_DESCRIPTION: abundance fitness (aPCA) (normalised: wild type 0, dead -1); higher = more abundant; growth selection in yeast, the domain comes from the species named
SETTINGS: Homo sapiens

MUTANT_ID: G23N
abundance fitness: -0.066

MUTANT_ID: G44C
abundance fitness: -0.446

MUTANT_ID: E34F
abundance fitness: -0.138

MUTANT_ID: P12V
abundance fitness: -0.717

MUTANT_ID: A55W
abundance fitness: -0.515

MUTANT_ID: K37G
abundance fitness: -0.96

MUTANT_ID: Q31F
abundance fitness: -0.5

MUTANT_ID: L29C
abundance fitness: -0.441

MUTANT_ID: L18Y
abundance fitness: -0.725

MUTANT_ID: L3D
abundance fitness: -0.503

MUTANT_ID: P50G
abundance fitness: -0.888

MUTANT_ID: E11Q
abundance fitness: -0.199

MUTANT_ID: A38K
abundance fitness: -0.927

MUTANT_ID: K56C
abundance fitness: -0.117

MUTANT_ID: F51R
abundance fitness: 0.148

MUTANT_ID: L7N
abundance fitness: -0.602

MUTANT_ID: H8D
abundance fitness: 0.003

MUTANT_ID: E11T
abundance fitness: 0.064

MUTANT_ID: E30M
abundance fitness: -0.278

MUTANT_ID: S40E
abundance fitness: -0.789

MUTANT_ID: S9Y
abundance fitness: -0.619

MUTANT_ID: F20K
abundance fitness: -0.705

MUTANT_ID: G19M
abundance fitness: -0.31

MUTANT_ID: F51M
abundance fitness: 0.137

MUTANT_ID: Y10F
abundance fitness: -0.241

MUTANT_ID: N52P
abundance fitness: -0.628

MUTANT_ID: S32N
abundance fitness: 0.101

MUTANT_ID: L7F
abundance fitness: -0.705

MUTANT_ID: W35Y
abundance fitness: -0.131

MUTANT_ID: H14N
abundance fitness: 0.12

MUTANT_ID: Q45C
abundance fitness: -0.117

MUTANT_ID: P50F
abundance fitness: -0.885

MUTANT_ID: D1M
abundance fitness: -0.334

MUTANT_ID: G19R
abundance fitness: -0.142

MUTANT_ID: A55P
abundance fitness: -0.835

MUTANT_ID: N2W
abundance fitness: -0.526

MUTANT_ID: I49V
abundance fitness: -0.094

MUTANT_ID: T42G
abundance fitness: -0.248

MUTANT_ID: E11S
abundance fitness: -0.16

MUTANT_ID: W35D
abundance fitness: -0.444

MUTANT_ID: N52H
abundance fitness: -0.189

MUTANT_ID: F20D
abundance fitness: -0.845

MUTANT_ID: G47R
abundance fitness: -0.687

MUTANT_ID: H14G
abundance fitness: -0.059

MUTANT_ID: E24H
abundance fitness: -0.774

MUTANT_ID: E30Q
abundance fitness: -0.161

MUTANT_ID: S40A
abundance fitness: -0.382

MUTANT_ID: I28V
abundance fitness: -0.108

MUTANT_ID: V54D
abundance fitness: -0.926

MUTANT_ID: S13K
abundance fitness: 0.171

MUTANT_ID: I49L
abundance fitness: -0.367

MUTANT_ID: E24T
abundance fitness: -0.754

MUTANT_ID: P50A
abundance fitness: -1

MUTANT_ID: G19Q
abundance fitness: -0.256

MUTANT_ID: A57T
abundance fitness: 0.008

MUTANT_ID: N2T
abundance fitness: -0.157

MUTANT_ID: L18G
abundance fitness: -0.717

MUTANT_ID: F53W
abundance fitness: -0.107

MUTANT_ID: D17K
abundance fitness: 0.051

MUTANT_ID: A38M
abundance fitness: -0.656

MUTANT_ID: H8G
abundance fitness: -0.295

MUTANT_ID: I28P
abundance fitness: -0.885

MUTANT_ID: S9R
abundance fitness: -0.11

MUTANT_ID: E34P
abundance fitness: -0.183

MUTANT_ID: F53K
abundance fitness: -0.37

MUTANT_ID: E24P
abundance fitness: -0.891

MUTANT_ID: T43D
abundance fitness: -0.446

MUTANT_ID: S32R
abundance fitness: 0.012

MUTANT_ID: G44Q
abundance fitness: -0.24

MUTANT_ID: Y10G
abundance fitness: -0.717

MUTANT_ID: E34M
abundance fitness: -0.262

MUTANT_ID: Q45N
abundance fitness: -0.288

MUTANT_ID: T43R
abundance fitness: -0.624

MUTANT_ID: H14R
abundance fitness: 0.039

MUTANT_ID: V54T
abundance fitness: -0.45

MUTANT_ID: I28R
abundance fitness: -0.874

MUTANT_ID: P50W
abundance fitness: -0.709

MUTANT_ID: A6C
abundance fitness: -0.217

MUTANT_ID: E21Q
abundance fitness: 0.007

MUTANT_ID: E34V
abundance fitness: -0.076

MUTANT_ID: A38L
abundance fitness: -0.337

MUTANT_ID: P12R
abundance fitness: -0.705

MUTANT_ID: S13Q
abundance fitness: -0.034

MUTANT_ID: Q39R
abundance fitness: -0.017
